- assay target: T1, full-length wild type recombinant cynomolgus LCAT (cynomolgus monkey, UniProt Q08758 25-440 (Papio anubis entry))
- T1 construct: also called cyno LCAT
- T1 chain: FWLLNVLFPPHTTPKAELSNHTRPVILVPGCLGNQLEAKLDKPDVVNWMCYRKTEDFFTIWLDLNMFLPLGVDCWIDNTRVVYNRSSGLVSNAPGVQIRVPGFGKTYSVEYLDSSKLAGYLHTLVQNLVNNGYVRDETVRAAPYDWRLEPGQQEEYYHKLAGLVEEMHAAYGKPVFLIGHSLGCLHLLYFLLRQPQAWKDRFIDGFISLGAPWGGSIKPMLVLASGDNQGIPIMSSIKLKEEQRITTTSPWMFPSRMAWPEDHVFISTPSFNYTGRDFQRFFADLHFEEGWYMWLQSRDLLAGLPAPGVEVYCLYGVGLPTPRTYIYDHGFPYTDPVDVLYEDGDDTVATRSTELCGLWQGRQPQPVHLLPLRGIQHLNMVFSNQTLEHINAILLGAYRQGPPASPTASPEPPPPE
- method notes: Binding Affinity (nM), Table 12; method not restated (BIAcore of Example 3 presumed)
readout label: Kd (nM)
Report as a plain number; the unit nM is understood.

Examples with their reported Kd follow.
| binder | Kd, nM |
| --- | --- |
| 27C3(S42A, S133T, M136I/I112V) (antibody, human IgG2, lambda, V domains shown, IgG2 lambda; The mutations are already in the entries) VH: QVQLQESGPGLVKPSQTLSLTCTVSGASISSGGYNWAWIRQHPGKGLEWIGYIYYSGSTYYNPSLKSRVTISVDTSKNQFSLKLSSVTAADTAVYYCARERGYCSSTSCTRVIDVWGQGTTVTVSS VL: SSELTQDPAVSVALGQTVRITCQGDSLRSYYASWYQQKPGQAPVLVIYGKNNRPSGIPDRFSGSSSGNTASLTITGAQAEDEADYYCNSRDNVGNHQVFGGGTKLTVLG | 88 |
| 27C3(S42A, S131T, V135I, M136I/N107G) (antibody, human IgG2, lambda, V domains shown, IgG2 lambda; The mutations are already in the entries) VH: QVQLQESGPGLVKPSQTLSLTCTVSGASISSGGYNWAWIRQHPGKGLEWIGYIYYSGSTYYNPSLKSRVTISVDTSKNQFSLKLSSVTAADTAVYYCARERGYCSSTTCSRIIDVWGQGTTVTVSS VL: SSELTQDPAVSVALGQTVRITCQGDSLRSYYASWYQQKPGQAPVLVIYGKNNRPSGIPDRFSGSSSGNTASLTITGAQAEDEADYYCGSRDNIGNHQVFGGGTKLTVLG | 226 |
| 27C3(S42A, M136I/N107G, I112V) (antibody, human IgG2, lambda, V domains shown, IgG2 lambda; The mutations are already in the entries) VH: QVQLQESGPGLVKPSQTLSLTCTVSGASISSGGYNWAWIRQHPGKGLEWIGYIYYSGSTYYNPSLKSRVTISVDTSKNQFSLKLSSVTAADTAVYYCARERGYCSSTSCSRVIDVWGQGTTVTVSS VL: SSELTQDPAVSVALGQTVRITCQGDSLRSYYASWYQQKPGQAPVLVIYGKNNRPSGIPDRFSGSSSGNTASLTITGAQAEDEADYYCGSRDNVGNHQVFGGGTKLTVLG | 190 |
| 27C3(S42A, S131T, V135I, M136I/N107G, I112V) (antibody, human IgG2, lambda, V domains shown, IgG2 lambda; The mutations are already in the entries) VH: QVQLQESGPGLVKPSQTLSLTCTVSGASISSGGYNWAWIRQHPGKGLEWIGYIYYSGSTYYNPSLKSRVTISVDTSKNQFSLKLSSVTAADTAVYYCARERGYCSSTTCSRIIDVWGQGTTVTVSS VL: SSELTQDPAVSVALGQTVRITCQGDSLRSYYASWYQQKPGQAPVLVIYGKNNRPSGIPDRFSGSSSGNTASLTITGAQAEDEADYYCGSRDNVGNHQVFGGGTKLTVLG | 88 |
| 27C3(S42A, S131T, M136I/N107G, I112V) (antibody, human IgG2, lambda, V domains shown, IgG2 lambda; The mutations are already in the entries) VH: QVQLQESGPGLVKPSQTLSLTCTVSGASISSGGYNWAWIRQHPGKGLEWIGYIYYSGSTYYNPSLKSRVTISVDTSKNQFSLKLSSVTAADTAVYYCARERGYCSSTTCSRVIDVWGQGTTVTVSS VL: SSELTQDPAVSVALGQTVRITCQGDSLRSYYASWYQQKPGQAPVLVIYGKNNRPSGIPDRFSGSSSGNTASLTITGAQAEDEADYYCGSRDNVGNHQVFGGGTKLTVLG | 181 |
| 27C3(S42A, S133T, M136I/N107G) (antibody, human IgG2, lambda, V domains shown, IgG2 lambda; The mutations are already in the entries) VH: QVQLQESGPGLVKPSQTLSLTCTVSGASISSGGYNWAWIRQHPGKGLEWIGYIYYSGSTYYNPSLKSRVTISVDTSKNQFSLKLSSVTAADTAVYYCARERGYCSSTSCTRVIDVWGQGTTVTVSS VL: SSELTQDPAVSVALGQTVRITCQGDSLRSYYASWYQQKPGQAPVLVIYGKNNRPSGIPDRFSGSSSGNTASLTITGAQAEDEADYYCGSRDNIGNHQVFGGGTKLTVLG | 62 |
| 27C3(S42A, S131T, V135I, M136I/I112V) (antibody, human IgG2, lambda, V domains shown, IgG2 lambda; The mutations are already in the entries) VH: QVQLQESGPGLVKPSQTLSLTCTVSGASISSGGYNWAWIRQHPGKGLEWIGYIYYSGSTYYNPSLKSRVTISVDTSKNQFSLKLSSVTAADTAVYYCARERGYCSSTTCSRIIDVWGQGTTVTVSS VL: SSELTQDPAVSVALGQTVRITCQGDSLRSYYASWYQQKPGQAPVLVIYGKNNRPSGIPDRFSGSSSGNTASLTITGAQAEDEADYYCNSRDNVGNHQVFGGGTKLTVLG | 198 |
| 27C3(S42A, S131T, M136I/N107G) (antibody, human IgG2, lambda, V domains shown, IgG2 lambda; The mutations are already in the entries) VH: QVQLQESGPGLVKPSQTLSLTCTVSGASISSGGYNWAWIRQHPGKGLEWIGYIYYSGSTYYNPSLKSRVTISVDTSKNQFSLKLSSVTAADTAVYYCARERGYCSSTTCSRVIDVWGQGTTVTVSS VL: SSELTQDPAVSVALGQTVRITCQGDSLRSYYASWYQQKPGQAPVLVIYGKNNRPSGIPDRFSGSSSGNTASLTITGAQAEDEADYYCGSRDNIGNHQVFGGGTKLTVLG | 226 |

Measured Kd, 27C3(S42A, S131T, M136I/I112V) (antibody, human IgG2, lambda, V domains shown, IgG2 lambda; The mutations are already in the entries) VH: QVQLQESGPGLVKPSQTLSLTCTVSGASISSGGYNWAWIRQHPGKGLEWIGYIYYSGSTYYNPSLKSRVTISVDTSKNQFSLKLSSVTAADTAVYYCARERGYCSSTTCSRVIDVWGQGTTVTVSS VL: SSELTQDPAVSVALGQTVRITCQGDSLRSYYASWYQQKPGQAPVLVIYGKNNRPSGIPDRFSGSSSGNTASLTITGAQAEDEADYYCNSRDNVGNHQVFGGGTKLTVLG : 198

Consider 27C3(S42A, S133T, M136I/N107G, I112V) (antibody, human IgG2, lambda, V domains shown, IgG2 lambda; The mutations are already in the entries) VH: QVQLQESGPGLVKPSQTLSLTCTVSGASISSGGYNWAWIRQHPGKGLEWIGYIYYSGSTYYNPSLKSRVTISVDTSKNQFSLKLSSVTAADTAVYYCARERGYCSSTSCTRVIDVWGQGTTVTVSS VL: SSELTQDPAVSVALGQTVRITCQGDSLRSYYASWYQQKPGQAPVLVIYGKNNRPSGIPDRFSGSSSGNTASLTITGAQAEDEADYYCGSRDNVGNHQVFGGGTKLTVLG . Its measured Kd is 8
